Tested on: Staphylococcus aureus
Assay: Antibacterial activity against methicillin-resistant Staphylococcus aureus BRS3 measured after overnight incubation by broth double-dilution method
Format: functional
Measured Metric: MIC (µg/mL)

[[record]]
compound = "O=c1c2ccccc2[s+]([O-])n1C1CCCCCCC1 (stereo not drawn)"
lt_gt_eq = ">"
val = 125

[[record]]
compound = "COc1cc(OC)cc(-n2sc3ccccc3c2=O)c1"
lt_gt_eq = "="
val = 2

[[record]]
compound = "CC(C)Cn1c(=O)c2ccccc2[s+]1[O-] (stereo not drawn)"
lt_gt_eq = ">"
val = 125

[[record]]
compound = "O=c1c2ccccc2sn1-c1cccc2ccccc12"
lt_gt_eq = "="
val = 2

[[record]]
compound = "CCCCCCn1sc2ccccc2c1=O"
lt_gt_eq = "="
val = 3.9

[[record]]
compound = "O=c1c2ccccc2sn1-c1ccc(F)cc1"
lt_gt_eq = "="
val = 3.9

[[record]]
compound = "O=c1c2ccccc2sn1-c1ccc(Br)cc1"
lt_gt_eq = "="
val = 3.9

[[record]]
compound = "Cc1cc(C)cc(-n2sc3ccccc3c2=O)c1"
lt_gt_eq = "="
val = 7.8

[[record]]
compound = "O=c1c2ccccc2[se]n1-c1ccccc1 [EBSELEN]"
lt_gt_eq = "="
val = 7.8

[[record]]
compound = "CC(C)CCn1sc2ccccc2c1=O"
lt_gt_eq = "="
val = 3.9

[[record]]
compound = "CCCCCCCCCCCCn1sc2ccccc2c1=O"
lt_gt_eq = "="
val = 15.6

[[record]]
compound = "O=c1c2ccccc2sn1-c1ccc(Cl)cc1"
lt_gt_eq = "="
val = 3.9

[[record]]
compound = "CC(C)CCn1c(=O)c2ccccc2[s+]1[O-] (stereo not drawn)"
lt_gt_eq = ">"
val = 125

[[record]]
compound = "CC(C)c1ccc(-n2sc3ccccc3c2=O)cc1"
lt_gt_eq = "="
val = 2

[[record]]
compound = "CC(C)(C)n1sc2ccccc2c1=O"
lt_gt_eq = "="
val = 15.6

[[record]]
compound = "CC(C)c1cccc(-n2sc3ccccc3c2=O)c1"
lt_gt_eq = "="
val = 1

[[record]]
compound = "CC(C)Cn1sc2ccccc2c1=O"
lt_gt_eq = "="
val = 7.8

[[record]]
compound = "O=c1c2ccccc2sn1-c1cccc(Br)c1"
lt_gt_eq = "="
val = 7.8

